Listed below: ABCB11 mRNA FC (5 μM ASO vs. UNT) values for each entry.
Tested on: human ABCB11 mRNA
Test: ASO treatment of primary human hepatocytes (PHH), ABCB11 mRNA by RT-qPCR normalized to B2M
Assay type: cell-based
Details: primary human hepatocytes, 5 μM ASO, normalized to untreated PHHs (UNT)
Strand notation (5' to 3'): a small letter for the sugar, then the base; units joined by * are phosphorothioate-linked, units joined directly phosphodiester-linked; [ ] holds rarer units or linkages, { } end groups; capitals alone tell only the bases. e = 2'-O-(2-methoxyethyl) (MOE); l = locked nucleic acid (LNA); [5mC] = 5-methylcytosine
quantityName: ABCB11 mRNA FC (5 μM ASO vs. UNT) (fold change)

[[record]]
substance = "CO-3996 (antisense eT*eT*eG*eT*e[5mC]*eT*e[5mC]*eT*eG*eG*eT*eT*eG*eAeA*eG*e[5mC]*e[5mC]*eT*e[5mC])"
target = "human ABCB11 mRNA"
val = 2.097

[[record]]
substance = "CO-3989 (antisense eA*eA*eG*eA*eT*eG*e[5mC]*eT*eA*e[5mC]*eA*eA*eT*eT*eG*e[5mC]*e[5mC]*eA*eT*eA)"
target = "human ABCB11 mRNA"
val = 1.19

[[record]]
substance = "CO-7191: derivative ASO with additional chemical modifications based on parent ASO CO-4535 (eT*eG*eG*e[5mC]*lG*eT*eT*eA*lT*eT*eA*eA*lT*eT*e[5mC]*eT*lA*e[5mC]*eA*eG)"
target = "human ABCB11 mRNA"
val = 1.676


###

Tested on: human ABCB11 mRNA
Assay: ASO treatment of primary human hepatocytes (PHH), ABCB11 mRNA by RT-qPCR normalized to B2M
Type: cell-based
Conditions: primary human hepatocytes, 5 μM ASO, normalized to untreated PHHs (UNT)
Strand notation (5' to 3'): a small letter for the sugar, then the base; units joined by * are phosphorothioate-linked, units joined directly phosphodiester-linked; [ ] holds rarer units or linkages, { } end groups; capitals alone tell only the bases. e = 2'-O-(2-methoxyethyl) (MOE); l = locked nucleic acid (LNA); [5mC] = 5-methylcytosine; d = 2'-deoxy (DNA)
quantityName: ABCB11 mRNA FC (5 μM ASO vs. UNT) (fold change)

[[record]]
substance = "CO-7070 (e[5mC]*eA*eT*eT*lT*dA*dG*dA*lG*dA*d[5mC]*dA*lA*dA*dG*eA*lA*eT*e[5mC]*eG; antisense)"
quantityname = "ABCB11 mRNA FC (5 μM ASO vs. UNT)"
endpointunit = "fold change"
val = 1.044

[[record]]
substance = "CO-4055 (antisense eT*eT*eG*eA*eA*e[5mC]*e[5mC]*eT*eT*eT*eA*eG*eA*eA*eA*eA*eT*e[5mC]*eG*eT)"
quantityname = "ABCB11 mRNA FC (5 μM ASO vs. UNT)"
endpointunit = "fold change"
val = 1.287

[[record]]
substance = "CO-7063 (eT*e[5mC]*lT*eG*eG*lA*eA*eA*lA*eT*eA*lA*eT*eG*l[5mC]*e[5mC]*eT*lT*eT*e[5mC]; antisense)"
quantityname = "ABCB11 mRNA FC (5 μM ASO vs. UNT)"
endpointunit = "fold change"
val = 1.291

[[record]]
substance = "CO-7053 (antisense e[5mC]*e[5mC]*eT*e[5mC]*eA*e[5mC]*e[5mC]*eT*eT*eG*eG*eT*eT*e[5mC]*e[5mC]*e[5mC]*e[5mC]*e[5mC]*eT*eG)"
quantityname = "ABCB11 mRNA FC (5 μM ASO vs. UNT)"
endpointunit = "fold change"
val = 1.145

[[record]]
substance = "CO-7047 (antisense eG*eA*eG*eT*eT*eG*eT*eG*eT*eT*eT*eT*eG*e[5mC]*eT*eT*eG*eG*eT*e[5mC])"
quantityname = "ABCB11 mRNA FC (5 μM ASO vs. UNT)"
endpointunit = "fold change"
val = 1.175

[[record]]
substance = "CO-4039 (antisense eG*eG*eT*eT*eA*eT*eT*eG*e[5mC]*eT*e[5mC]*eT*eG*eA*eG*eT*eA*eT*eG*eT)"
quantityname = "ABCB11 mRNA FC (5 μM ASO vs. UNT)"
endpointunit = "fold change"
val = 1.022

[[record]]
substance = "CO-4500 (antisense eA*eG*eA*e[5mC]*eT*eT*eT*eG*eG*e[5mC]*e[5mC]*eA*eG*eG*e[5mC]*eA*eA*eG*eA*e[5mC])"
quantityname = "ABCB11 mRNA FC (5 μM ASO vs. UNT)"
endpointunit = "fold change"
val = 1.109

[[record]]
substance = "CO-7179: derivative ASO with additional chemical modifications based on parent ASO CO-4529 (antisense eG*eT*lG*eG*lA*eG*l[5mC]*eA*lA*eA*l[5mC]*eT*lA*eG*lG*e[5mC]*lA*e[5mC]*eT*eG)"
quantityname = "ABCB11 mRNA FC (5 μM ASO vs. UNT)"
endpointunit = "fold change"
val = 2.344

[[record]]
substance = "CO-7210 (eT*eT*eT*eG*eG*d[5mC]*dG*lT*dT*dA*lT*dT*dA*lA*dT*dT*l[5mC]*dT*dA*e[5mC]*eA*eG*eA*eG; antisense)"
quantityname = "ABCB11 mRNA FC (5 μM ASO vs. UNT)"
endpointunit = "fold change"
val = 1.362

[[record]]
substance = "CO-7041 (antisense eG*eT*e[5mC]*eA*eA*eG*eA*eGeG*eA*eA*eA*eG*eA*eA*e[5mC]*eT*eG*eG*e[5mC])"
quantityname = "ABCB11 mRNA FC (5 μM ASO vs. UNT)"
endpointunit = "fold change"
val = 1.15

[[record]]
substance = "CO-4528 (antisense e[5mC]*eT*eG*eG*eG*eA*eT*eA*eG*eG*eG*eT*eG*eG*eA*eT*e[5mC]*eT*eA*e[5mC])"
quantityname = "ABCB11 mRNA FC (5 μM ASO vs. UNT)"
endpointunit = "fold change"
val = 0.883

[[record]]
substance = "CO-7188: derivative ASO with additional chemical modifications based on parent ASO CO-4535 (antisense eT*eG*eG*l[5mC]*eG*lT*eT*lA*eT*lT*eA*lA*eT*lT*e[5mC]*lT*eA*l[5mC]*eA*eG)"
quantityname = "ABCB11 mRNA FC (5 μM ASO vs. UNT)"
endpointunit = "fold change"
val = 1.697

[[record]]
substance = "CO-4050 (antisense e[5mC]*eA*eA*eA*eT*eG*eT*eT*e[5mC]*eT*eT*eT*eT*eA*eG*eG*eG*eT*eA*eT)"
quantityname = "ABCB11 mRNA FC (5 μM ASO vs. UNT)"
endpointunit = "fold change"
val = 0.968

[[record]]
substance = "CO-7010 (antisense eT*eG*eT*eG*eG*eA*eT*eG*eT*eA*eG*eA*eT*eG*eA*eA*eT*eG*eG*e[5mC]*eA*eA*eG*eG)"
quantityname = "ABCB11 mRNA FC (5 μM ASO vs. UNT)"
endpointunit = "fold change"
val = 1.293

[[record]]
substance = "CO-7185 (antisense eT*eG*eG*e[5mC]*eG*lT*dT*dA*lT*dT*dA*lA*dT*dT*l[5mC]*eT*eA*e[5mC]*eA*eG)"
quantityname = "ABCB11 mRNA FC (5 μM ASO vs. UNT)"
endpointunit = "fold change"
val = 1.327

[[record]]
substance = "CO-7183 (antisense eG*eT*eG*eG*eA*lG*e[5mC]*eA*eA*eA*l[5mC]*eT*eA*eG*eG*l[5mC]*eA*e[5mC]*eT*eG)"
quantityname = "ABCB11 mRNA FC (5 μM ASO vs. UNT)"
endpointunit = "fold change"
val = 1.295

[[record]]
substance = "CO-7060 (eT*e[5mC]*eT*eG*lG*dA*dA*dA*lA*dT*dA*dA*lT*dG*d[5mC]*e[5mC]*lT*eT*eT*e[5mC]; antisense)"
quantityname = "ABCB11 mRNA FC (5 μM ASO vs. UNT)"
endpointunit = "fold change"
val = 1.17

[[record]]
substance = "CO-4492 (antisense eG*eA*eT*eT*eT*eA*eA*eA*eG*eG*eA*e[5mC]*eT*eG*e[5mC]*eA*eT*eG*eG*e[5mC])"
quantityname = "ABCB11 mRNA FC (5 μM ASO vs. UNT)"
endpointunit = "fold change"
val = 1.192

[[record]]
substance = "CO-6995 (antisense eG*eT*eG*eA*eG*lG*d[5mC]*dA*lT*d[5mC]*dA*lG*dG*dT*lA*eA*eG*eT*eT*e[5mC])"
quantityname = "ABCB11 mRNA FC (5 μM ASO vs. UNT)"
endpointunit = "fold change"
val = 1.277

[[record]]
substance = "CO-6969 (antisense eT*eG*eT*eG*eG*eA*eT*eG*eT*eA*eG*eA*eT*eG*eA*eA*eT*eG*eG*e[5mC])"
quantityname = "ABCB11 mRNA FC (5 μM ASO vs. UNT)"
endpointunit = "fold change"
val = 1.266

[[record]]
substance = "CO-6994 (antisense eT*eG*eG*eA*lT*eG*eT*eA*eG*lA*eT*eG*eA*eA*lT*eG*eG*e[5mC]*eA*eA)"
quantityname = "ABCB11 mRNA FC (5 μM ASO vs. UNT)"
endpointunit = "fold change"
val = 1.131

[[record]]
substance = "CO-6671 (antisense eT*eT*e[5mC]*eT*eG*eT*eA*eG*eT*eT*eT*eA*eG*eT*eT*eG*eA*e[5mC]*eT*eG)"
quantityname = "ABCB11 mRNA FC (5 μM ASO vs. UNT)"
endpointunit = "fold change"
val = 1.163

[[record]]
substance = "CO-4058 (antisense eG*eA*eT*eT*e[5mC]*eA*e[5mC]*eA*eA*eG*eA*eA*eG*eG*eG*eA*eG*eA*eG*eG)"
quantityname = "ABCB11 mRNA FC (5 μM ASO vs. UNT)"
endpointunit = "fold change"
val = 1.134

[[record]]
substance = "CO-4502 (antisense eA*eA*eA*eT*eGeT*eT*eG*eG*e[5mC]*e[5mC]e[5mC]*eT*eT*eG*eA*eG*eG*eA*eG)"
quantityname = "ABCB11 mRNA FC (5 μM ASO vs. UNT)"
endpointunit = "fold change"
val = 1.142

[[record]]
substance = "CO-7151: derivative ASO with additional chemical modifications based on parent ASO CO-4517 (antisense e[5mC]*e[5mC]*eT*eT*eA*lG*dG*dA*lG*dG*dA*dT*dT*lA*dT*dT*lT*eA*eA*e[5mC]*e[5mC]*eT)"
quantityname = "ABCB11 mRNA FC (5 μM ASO vs. UNT)"
endpointunit = "fold change"
val = 1.498

